The origin of these recorded values is patent US10654834B2.

ASSAY: Pharmacokinetic profile in mice after oral gavage
Assay type: in vivo, mouse
MEASUREMENT PARAMETERS: mouse; fasted male Hilltop mice, 10 mg/kg oral gavage, plasma; read-out: Cmax
Threshold 8 ng/mL. Cmax below it: MET. Cmax at it or above: NOT MET.

Please state whether Cmax is below 8 ng/mL for N#Cc1ccc(CCNC(=O)[C@@H]2CCCN2c2cc(N3CCC(CCCC(=O)NCCNc4ncc(C(=O)O)cn4)CC3)nc(C(F)(F)F)n2)cc1
NOT MET

Please state whether Cmax is below 8 ng/mL for N#Cc1ccc(CCNC(=O)[C@@H]2CCCN2c2cc(N3CCC(CCNS(=O)(=O)CCNc4ncc(C(=O)O)cn4)CC3)nc(C(F)(F)F)n2)cc1
MET

Please state whether Cmax is below 8 ng/mL for N#Cc1ccc(CCNC(=O)[C@@H]2CCN2c2cc(N3CCC(CCNc4c(NCC(=O)O)c(=O)c4=O)CC3)nc(C(F)(F)F)n2)cc1
MET

Please state whether Cmax is below 8 ng/mL for N#Cc1ccc(CCNC(=O)[C@@H]2CCCN2c2cc(-c3ccc(CCC(=O)NCS(=O)(=O)O)cc3)cc(C(F)(F)F)n2)cc1
MET

Please state whether Cmax is below 8 ng/mL for N#Cc1ccc(CCNC(=O)[C@@H]2CCCN2c2cc(N3CCC(CCC(=O)NCCS(=O)(=O)O)CC3)nc(C(F)(F)F)n2)cc1
NOT MET

Please state whether Cmax is below 8 ng/mL for O=C(O)CNS(=O)(=O)CCNC(=O)CCCC1CCN(c2cc(N3CCC[C@H]3C(=O)NCCc3ccc(C(F)(F)F)cc3)nc(C(F)(F)F)n2)CC1
MET

Please state whether Cmax is below 8 ng/mL for N#Cc1ccc(CCNC(=O)[C@@H]2CCCN2c2cc(N3CCC(CCCC(=O)NCC(N)=O)CC3)nc(C(F)(F)F)n2)cc1
NOT MET

Please state whether Cmax is below 8 ng/mL for COc1cc(C(F)(F)F)ccc1CCNC(=O)[C@@H]1CCN1c1cc(N2CCC(CCC(=O)O)CC2)nc(C(F)(F)F)n1
NOT MET

Please state whether Cmax is below 8 ng/mL for N#Cc1ccc(CCNC(=O)[C@@H]2CCN2c2cc(N3CCC(CCNC(=O)NCS(=O)(=O)O)CC3)nc(C(F)(F)F)n2)cc1
MET

Please state whether Cmax is below 8 ng/mL for N#Cc1ccc(CCNC(=O)[C@@H]2CCN2c2cc(N3CCC(CCNc4c(NCCS(=O)(=O)O)c(=O)c4=O)CC3)nc(C(F)(F)F)n2)cc1
NOT MET

Please state whether Cmax is below 8 ng/mL for NS(=O)(=O)CCNC(=O)CCCC1CCN(c2cc(N3CCC[C@H]3C(=O)NCCc3ccc(C(F)(F)F)cc3)nc(C(F)(F)F)n2)CC1
NOT MET

Please state whether Cmax is below 8 ng/mL for O=C(O)CN1CCC(CCCC2CCN(c3cc(N4CC[C@H]4C(=O)NCCc4ccc(C(F)(F)F)cc4)nc(C(F)(F)F)n3)CC2)CC1
NOT MET

Please state whether Cmax is below 8 ng/mL for N#Cc1ccc(CCNC(=O)[C@@H]2CCN2c2cc(N3CCC(CCCC(=O)NCCS(=O)(=O)O)CC3)nc(C(F)(F)F)n2)cc1
MET

Please state whether Cmax is below 8 ng/mL for N#Cc1ccc(CCNC(=O)[C@@H]2CCCN2c2cc(N3CCC(CCNc4c(NCCS(=O)(=O)O)c(=O)c4=O)CC3)nc(C(F)(F)F)n2)cc1
MET

Please state whether Cmax is below 8 ng/mL for N#Cc1ccc(CCNC(=O)[C@@H]2CCN2c2cc(N3CCC(CCNC(=O)NCCOCCNC(=O)NCCS(=O)(=O)O)CC3)nc(C(F)(F)F)n2)cc1
MET

Please state whether Cmax is below 8 ng/mL for N#Cc1ccc(CCNC(=O)[C@@H]2CCCN2c2cc(N3CCC(CCNC(=O)[C@@H](N)CS(=O)(=O)O)CC3)nc(C(F)(F)F)n2)cc1
MET

Please state whether Cmax is below 8 ng/mL for N#Cc1ccc(CCNC(=O)[C@@H]2CCCN2c2cc(N3CCC(CCC(=O)O)CC3)nc(C(F)(F)F)n2)cc1
NOT MET

Please state whether Cmax is below 8 ng/mL for N#Cc1ccc(CCNC(=O)[C@@H]2CCCN2c2cc(-c3ccc(CO)cc3)cc(C(F)(F)F)n2)cc1
MET

Please state whether Cmax is below 8 ng/mL for N#Cc1ccc(CCNC(=O)[C@@H]2CCCN(c3cc(N4CCC(CO)CC4)nc(C(F)(F)F)n3)C2)cc1
NOT MET

Please state whether Cmax is below 8 ng/mL for N#Cc1ccc(CCNC(=O)[C@@H]2CCCN2c2cc(N3CCC(CCCC(=O)NCCNc4ncc(C(=O)NCCS(=O)(=O)O)cn4)CC3)nc(C(F)(F)F)n2)cc1
MET

Please state whether Cmax is below 8 ng/mL for N#Cc1ccc(CCNC(=O)[C@@H]2CCN2c2cc(N3CCC(CCNc4c(NCCC(=O)O)c(=O)c4=O)CC3)nc(C(F)(F)F)n2)cc1
MET

Please state whether Cmax is below 8 ng/mL for N#Cc1ccc(CCNC(=O)[C@@H]2CCCN2c2cc(N3CCC(CCNC(=O)NCS(=O)(=O)O)CC3)nc(C(F)(F)F)n2)cc1
NOT MET

Please state whether Cmax is below 8 ng/mL for N#Cc1ccc(CCNC(=O)[C@@H]2CCCN2c2cc(N3CCC(CCCC(=O)NCP(=O)(O)O)CC3)nc(C(F)(F)F)n2)cc1
MET

Please state whether Cmax is below 8 ng/mL for N#Cc1ccc(CCNC(=O)[C@@H]2CCN2c2cc(N3CCC(CCCC(=O)NCS(=O)(=O)O)CC3)nc(C(F)(F)F)n2)cc1
MET

###

Give measured Cmax for each item. Keep answers brief.
ASSAY: Pharmacokinetic profile in mice after oral gavage
Type: in vivo, mouse
MEASUREMENT PARAMETERS: mouse; fasted male Hilltop mice, 10 mg/kg oral gavage, plasma; read-out: Cmax
Returns: string containing the numeric result and its unit.

Looking up COCC1CCN(c2cc(N3CCC[C@H]3C(=O)NCCc3ccc(C#N)cc3)nc(C(F)(F)F)n2)CC1 [Compound 24] , I found its Cmax recorded as 970 ng/mL

Looking up N#Cc1ccc(CCNC(=O)[C@@H]2CCN2c2cc(N3CCC(CCNC(=N)N)CC3)nc(C(F)(F)F)n2)cc1 [Compound 285] , I found its Cmax recorded as 0.9 ng/mL

Looking up N#Cc1ccc(CCNC(=O)[C@@H]2CCN2c2cc(N3CCC(CCNC(=O)NCCOCCNC(=N)N)CC3)nc(C(F)(F)F)n2)cc1 [Compound 287] , I found its Cmax recorded as 5 ng/mL

Looking up N#Cc1ccc(CCNC(=O)[C@@H]2CCCN2c2cc(N3CCC(CCNC(=O)NCCOCCOCCOCCC(=O)O)CC3)nc(C(F)(F)F)n2)cc1 [Compound 364] , I found its Cmax recorded as 8 ng/mL

Looking up O=C(CCCC1CCN(c2cc(N3CCC[C@H]3C(=O)NCCc3cccc(Cl)c3Cl)nc(C(F)(F)F)n2)CC1)NCS(=O)(=O)O [Compound 138] , I found its Cmax recorded as 69 ng/mL

Looking up N#Cc1ccc(CCNC(=O)[C@@H]2CCCN2c2cc(N3CCC(CCNS(=O)(=O)CCNC(=N)N)CC3)nc(C(F)(F)F)n2)cc1 [Compound 130] , I found its Cmax recorded as 2.8 ng/mL

###

Give measured pEC50 for each item. Keep answers brief.
TARGET OR SYSTEM: mouse TGR5 receptor (Mus musculus)
Construct: host or cells: HEK293-EBNA (293 c18, ATCC CRL10852)
Sequence (Q80SS6 whole entry): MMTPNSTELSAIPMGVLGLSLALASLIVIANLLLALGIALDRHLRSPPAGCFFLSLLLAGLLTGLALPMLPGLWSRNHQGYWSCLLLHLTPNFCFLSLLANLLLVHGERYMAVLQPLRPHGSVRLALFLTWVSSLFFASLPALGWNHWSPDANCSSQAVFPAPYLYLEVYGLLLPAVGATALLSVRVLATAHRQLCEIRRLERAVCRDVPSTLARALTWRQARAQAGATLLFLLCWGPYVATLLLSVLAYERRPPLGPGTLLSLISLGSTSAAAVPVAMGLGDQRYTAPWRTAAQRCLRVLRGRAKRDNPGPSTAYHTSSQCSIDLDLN
ASSAY: Mouse TGR5 luminescent cAMP production assay (HEK293-EBNA cells, DiscoveRx cAMP XS+ kit)
Assay type: cell-based
MEASUREMENT PARAMETERS: HEK293-EBNA cells overexpressing mouse TGR5, luminescent cAMP assay; read-out: Mouse TGR5 Lum. cAMP Activity (EC50)
pEC50: −log10 of the molar value.

Looking up CC(C)(C)OC(=O)NC1CCN(c2cc(N3CCC[C@H]3C(=O)NCCc3ccc(C#N)cc3)nc(C(F)(F)F)n2)CC1 , I found its pEC50 recorded as > 7.00

Looking up N#Cc1ccc(CCNC(=O)[C@@H]2CCCN2c2cc(-c3ccsc3)nc(C(F)(F)F)n2)cc1 , I found its pEC50 recorded as > 7.00

Looking up N[C@@H]1CC(C(=O)NCCc2ccc(C(F)(F)F)cc2)N(c2cc(N3CCC(CO)CC3)nc(C(F)(F)F)n2)C1 (some centres unmarked) , I found its pEC50 recorded as 6.00 to 7.00

Looking up N#Cc1ccc(CCNC(=O)[C@@H]2C[C@@H](O)CN2c2cc(N3CCC(CO)CC3)nc(C(F)(F)F)n2)cc1 , I found its pEC50 recorded as 6.00 to 7.00

Looking up N#Cc1ccc(CCNC(=O)[C@@H]2CCCN2c2cc(N3CCC(CN)CC3)nc(C(F)(F)F)n2)cc1 , I found its pEC50 recorded as 6.00 to 7.00

Looking up N#Cc1ccc(CCNC(=O)[C@@H]2CCCN2c2cc(OC3CCOCC3)nc(C(F)(F)F)n2)cc1 , I found its pEC50 recorded as > 7.00

Looking up CS(=O)(=O)Nc1cccc(-c2cc(N3CCC[C@H]3C(=O)NCCc3ccc(C#N)cc3)nc(C(F)(F)F)n2)c1 , I found its pEC50 recorded as 6.00 to 7.00

Looking up COc1cc(-c2cc(N3CCC[C@H]3C(=O)NCCc3ccc(C#N)cc3)nc(C(F)(F)F)n2)c(Cl)cn1 , I found its pEC50 recorded as > 7.00

Looking up N#Cc1ccc(CCNC(=O)[C@@H]2CCCN2c2cc(-c3ccc(CN4CCOCC4)s3)nc(C(F)(F)F)n2)cc1 , I found its pEC50 recorded as 6.00 to 7.00

Looking up CC(=O)NCCNc1cc(N2CCC[C@@H](C(=O)NCCc3ccc(C(F)(F)F)cc3)C2)nc(C(F)(F)F)n1 , I found its pEC50 recorded as 6.00 to 7.00

Looking up CCOc1ccc(-c2cc(N3CCC[C@H]3C(=O)NCCc3ccc(C#N)cc3)nc(C(F)(F)F)n2)cc1 , I found its pEC50 recorded as 6.00 to 7.00

Looking up N#Cc1ccc(CCNC(=O)[C@@H]2CCCN2c2cc(Nc3ccncc3)nc(C(F)(F)F)n2)cc1 , I found its pEC50 recorded as 4.52 to 6.00

Looking up CN1CCC(Oc2cc(N3CCC[C@H]3C(=O)NCCc3ccc(C#N)cc3)nc(C(F)(F)F)n2)CC1 , I found its pEC50 recorded as > 7.00

Looking up O=C(NCCc1ccc(C(F)(F)F)cc1)[C@@H]1CCCN1c1cc(-c2ccncc2)nc(C(F)(F)F)n1 , I found its pEC50 recorded as 6.00 to 7.00

Looking up N#Cc1ccc(CCNC(=O)[C@@H]2CCCN2c2cc(-c3ccccn3)nc(C(F)(F)F)n2)cc1 , I found its pEC50 recorded as 6.00 to 7.00

Looking up N#Cc1ccc(CCNC(=O)[C@@H]2CCCN2c2cc(-c3cccs3)nc(C(F)(F)F)n2)cc1 , I found its pEC50 recorded as 6.00 to 7.00

Looking up COc1ccc(-c2cc(N3CCC[C@H]3C(=O)NCCc3ccc(C#N)cc3)nc(C(F)(F)F)n2)cc1OC , I found its pEC50 recorded as 6.00 to 7.00

Looking up CN(C)CCN1CCN(c2cc(N3CCC[C@@H](C(=O)NCCc4ccc(C#N)cc4)C3)nc(C(F)(F)F)n2)CC1 , I found its pEC50 recorded as 6.00 to 7.00

Looking up N#Cc1ccc(CCNC(=O)[C@@H]2CCCN(c3cc(N4CCN(Cc5cccc6c5OCO6)CC4)nc(C(F)(F)F)n3)C2)cc1 , I found its pEC50 recorded as 6.00 to 7.00

Looking up N#Cc1ccc(CCNC(=O)[C@@H]2CCCN2c2cc(N3CCC(CO)CC3)nc(C(F)(F)F)n2)cc1 , I found its pEC50 recorded as > 7.00

Looking up N#Cc1ccc(CCNC(=O)[C@@H]2CCCN2c2cc(-c3ccncc3F)nc(C(F)(F)F)n2)cc1 , I found its pEC50 recorded as 6.00 to 7.00

Looking up Nc1cc(N2CCC[C@@H](C(=O)NCCc3ccc(C(F)(F)F)cc3)C2)nc(C(F)(F)F)n1 , I found its pEC50 recorded as 6.00 to 7.00

Looking up N#Cc1ccc(CCNC(=O)[C@@H]2CCN2c2cc(OC3CCOCC3)nc(C(F)(F)F)n2)cc1 , I found its pEC50 recorded as > 7.00

Looking up N#Cc1ccc(CCNC(=O)[C@@H]2CCCN2c2cc(-c3ccoc3)nc(C(F)(F)F)n2)cc1 , I found its pEC50 recorded as 6.00 to 7.00

Looking up O=C(NCCc1ccc(C(F)(F)F)cc1)[C@@H]1CCN1c1cc(N2CCC(CO)CC2)nc(C(F)(F)F)n1 , I found its pEC50 recorded as > 7.00

Looking up N#Cc1ccc(CCNC(=O)[C@@H]2CCCN(c3cc(N4CCC(CCO)CC4)nc(C(F)(F)F)n3)C2)cc1 , I found its pEC50 recorded as > 7.00

Looking up CN(C)CC1CCN(c2cc(N3CC[C@H]3C(=O)NCCc3ccc(C#N)cc3)nc(C(F)(F)F)n2)CC1 , I found its pEC50 recorded as > 7.00

Looking up N#Cc1ccc(CCNC(=O)[C@@H]2CCCN2c2cc(-c3ccc(CN)cc3)nc(C(F)(F)F)n2)cc1 , I found its pEC50 recorded as 6.00 to 7.00

Looking up COc1cc(-c2cc(N3CCC[C@H]3C(=O)NCCc3ccc(C#N)cc3)nc(C(F)(F)F)n2)ccn1 , I found its pEC50 recorded as > 7.00
